# Test system: Muscarinic acetylcholine receptor M1
# Assay method text: M1 muscarinic receptor agonists, primary screen, CHO-M1 cells, Fluo-4 calcium, agonist mode (AID 626)
# Measurement context: Fluo-4 calcium fluorescence, at 10 µM, stronger effect = higher value
Out of some 64,000 compounds screened, about 1,900 (3%) were called active. What follows is part of a selection rich in actives, with near analogues and random picks from the rest.
Classes by B-score: group A: < -0.2; group B: ≥ -0.2 and < 0.5; group C: ≥ 0.5

{"Compound": "N#CC1=C(N)Oc2c(sc3ccccc23)C1c1ccco1 (stereo not given)", "Answer label": "group C"}
{"Compound": "O=C(CSc1nnc(Cn2cnc3ccccc32)o1)c1ccccc1", "Answer label": "group C"}
{"Compound": "N/C(=N\\c1nc2ccccc2o1)NC(=O)C(Cc1ccccc1)N1C(=O)c2ccccc2C1=O (stereo not given)", "Answer label": "group C"}
{"Compound": "O=C(CC1Oc2ccccc2NC1=O)NCCCN1CCN(Cc2ccccc2)CC1 (stereo not given)", "Answer label": "group B"}
{"Compound": "CC1CCCC(C)N1C(=O)CN1CCN(c2nc(-c3ccc(F)cc3)cs2)CC1 (stereo not given)", "Answer label": "group C"}
{"Compound": "c1ccc(Cc2nn3c(Cn4cnc5ccccc54)nnc3s2)cc1", "Answer label": "group B"}
{"Compound": "Cc1ccc2oc(=O)c3cnn(CC(=O)N4CCN(c5ccccn5)CC4)c3c2c1", "Answer label": "group C"}
{"Compound": "Cc1nc2ccc(S(=O)(=O)NC(C(=O)N3CCCCCC3)C(C)C)cc2s1 (stereo not given)", "Answer label": "group C"}
{"Compound": "CC(=O)Nc1cccc(Oc2cc(C#N)c(C#N)cc2N2CCOCC2)c1", "Answer label": "group B"}
{"Compound": "O=C(C1CCC1)N1CCc2cc(S(=O)(=O)NCc3cccnc3)ccc21", "Answer label": "group A"}
{"Compound": "O=C(O)c1ccc(COCC(F)(F)F)cc1", "Answer label": "group C"}
{"Compound": "COCCN1C(=O)c2oc3c(C)cc(C)cc3c(=O)c2C1c1cccc(O)c1 (stereo not given)", "Answer label": "group B"}
{"Compound": "CCOc1cccc(-n2nnnc2-c2ccc(OC)cc2)c1", "Answer label": "group B"}
{"Compound": "Cc1ccc(CNC(=O)CN2CCN(Cc3ccc(Cl)cc3)C2=O)cc1", "Answer label": "group A"}
{"Compound": "COc1ccc(CCNC(=O)C2CCN(c3nn4c(=O)cc(C)nc4s3)CC2)cc1OC", "Answer label": "group C"}
{"Compound": "Cc1cccn2c(=O)c3cc(C#N)c(=NC(=O)c4cccnc4)n(CC4CCCO4)c3nc12 (stereo not given)", "Answer label": "group C"}
{"Compound": "CCOc1cc(N2CCOCC2)c(OCC)cc1NC(=O)COc1cccc2cccnc12", "Answer label": "group C"}
{"Compound": "CCn1c(Cc2ccccc2)nnc1SCc1nc2ccccc2c(=O)[nH]1", "Answer label": "group B"}
{"Compound": "CCCS(=O)(=O)N1CCC(C(=O)NCCc2ccc(OC)c(OC)c2)CC1", "Answer label": "group B"}
{"Compound": "Cc1cccn2c(=O)c3cc(C(=O)NCc4ccccn4)n(C)c3nc12", "Answer label": "group A"}
{"Compound": "COc1ncnc2c1N=C1CC(C)(C)CC(N)=C1S2", "Answer label": "group C"}
{"Compound": "Cc1ccc2oc(=O)c3cnn(CC(=O)N4CCCCCC4)c3c2c1", "Answer label": "group B"}
{"Compound": "COc1ccc(-c2csc(N3CCN(Cc4ccc5c(c4)OCO5)CC3)n2)cc1", "Answer label": "group B"}
{"Compound": "C/C(=C(\\C#N)C(=O)NCCCN1CCOCC1)N(C)C", "Answer label": "group B"}
{"Compound": "CCN(CC)c1ccc2cc(C(=O)O)c(=O)oc2c1", "Answer label": "group C"}
{"Compound": "Cc1cc(C)cc(OCc2nnc(SCC(=O)Nc3ccccc3)o2)c1", "Answer label": "group C"}
{"Compound": "CCOc1ccc(NC(=O)Nc2cc(C)on2)cc1", "Answer label": "group A"}
{"Compound": "COc1ccc(CNC(=O)c2cc3c(=O)n4ccccc4nc3n(CC3CCCO3)c2=N)cc1 (stereo not given)", "Answer label": "group B"}
{"Compound": "O=C(COc1cccc(-n2cnnn2)c1)NCCC1=CCCCC1", "Answer label": "group A"}
{"Compound": "C1=C(CCNc2ncnc3c2cnn3-c2ccccc2)CCCC1", "Answer label": "group B"}
{"Compound": "COc1ccc2oc(=O)c(C(=O)O)cc2c1", "Answer label": "group B"}
{"Compound": "CCCOC(=O)c1cc2ccccc2oc1=O", "Answer label": "group B"}
{"Compound": "COc1ccc(S(=O)(=O)N2CCC(C(=O)N3CCc4ccccc4C3)CC2)cc1OC", "Answer label": "group B"}
{"Compound": "CCOc1cccc(=O)c2c(C)n(CC3CCCO3)c(C)c12 (stereo not given)", "Answer label": "group A"}
{"Compound": "Cc1cccn2c(=O)c3cc(C#N)c(=O)n(CCCN4CCOCC4)c3nc12", "Answer label": "group A"}
{"Compound": "O=C(NCc1ccccn1)c1cc2ccccc2oc1=O", "Answer label": "group A"}
{"Compound": "CCOC(=O)C1CCCN(C(=O)Cn2ncc3c(=O)oc4ccc(C)cc4c32)C1 (stereo not given)", "Answer label": "group A"}
{"Compound": "O=C(Nc1ccccc1C(=O)N1CCOCC1)C1CCC(=O)N1C1CCCC1 (stereo not given)", "Answer label": "group B"}
{"Compound": "O=C(CN1CCN(c2nc(-c3ccccc3)cs2)CC1)NCc1ccc2c(c1)OCO2", "Answer label": "group A"}
{"Compound": "O=C(NCc1ccccn1)c1ccc2nc(-c3ccco3)c(-c3ccco3)nc2c1", "Answer label": "group C"}
{"Compound": "CCOc1cc(-c2nc3cc(C)ccn3c2NCC2CCCO2)ccc1O (stereo not given)", "Answer label": "group C"}
{"Compound": "CC(=O)c1ccc(N2C(=NC(=O)C(C)C)SC3CS(=O)(=O)CC32)cc1 (stereo not given)", "Answer label": "group A"}
{"Compound": "COc1cc2c(cc1NC(=O)CN1CCN(S(=O)(=O)c3ccc(F)cc3)CC1)oc1ccccc12", "Answer label": "group A"}
{"Compound": "CCOc1cc(NC(=O)c2ccco2)c(OCC)cc1NC(=O)COc1ccccc1", "Answer label": "group B"}

---

# Test system: Muscarinic acetylcholine receptor M1
# Assay method text: M1 muscarinic receptor agonists, primary screen, CHO-M1 cells, Fluo-4 calcium, agonist mode (AID 626)
# Measurement context: Fluo-4 calcium fluorescence, at 10 µM
Out of some 64,000 compounds screened, about 1,900 (3%) were called active.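 How the source made its calls: active means fluorescence rise, raw or as B-score row- and column-corrected plate score, outside the 99.7% band of its plate's samples, either direction; inactive means the rest.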 What follows is part of a selection rich in actives, with near analogues and random picks from the rest.
Outcome codes: active, inactive

{"Molecule": "CC(C)(C)n1nnnc1C(c1cccs1)N(Cc1cccnc1)CC1CCCO1 (configuration not stated)", "Answer label": "inactive"}
{"Molecule": "CCC(C)(C)NC(=O)C(c1cccn1C)N(Cc1ccc(C)cc1)C(=O)Cn1nnc2ccccc21 (configuration not stated)", "Answer label": "inactive"}
{"Molecule": "O=C(CN1C(=O)COc2ccccc21)Nc1ccc(F)cc1", "Answer label": "inactive"}
{"Molecule": "Cc1cc(OCCN2CCCC2)ccc1C(C)C", "Answer label": "inactive"}
{"Molecule": "O=C(Nc1ccccc1)c1cccnc1Nc1ccccc1", "Answer label": "inactive"}
{"Molecule": "Cn1c(=NC(=O)CSCC(=O)N2CCCCC2)sc2ccccc21", "Answer label": "inactive"}
{"Molecule": "CCn1c(SCCC(C)C)nnc1-c1c[nH]c2ccccc12", "Answer label": "inactive"}
{"Molecule": "CC(C)(C)c1ccc(NC(=O)NCc2ccco2)cc1", "Answer label": "inactive"}
{"Molecule": "O=C(O)CCC(=O)NCc1ccc2[nH]c3c(c2c1)CCCC3", "Answer label": "inactive"}
{"Molecule": "CC(C[N+](C)(C)C)OC(N)=O (configuration not stated)", "Answer label": "active"}
{"Molecule": "CCOc1ccc(CN(Cc2ccco2)C(c2cccs2)c2nnnn2C(C)(C)C)cc1 (configuration not stated)", "Answer label": "active"}
{"Molecule": "Cc1ccc(Cn2ccc(NC(=O)c3cc(C(C)C)on3)n2)cc1", "Answer label": "inactive"}
